target: SARS-CoV-2 receptor-binding domain (RBD), wild type (SARS-CoV-2, UniProt P0DTC2, DyLight 488 (NHS ester, about 1.9 dye/protein) in the FRET assay only)
OUTCOME_MEASURE: binding result

[
  {
    "BINDER": "WNb 30 (VHH) VHH: QVQLQESGGGLVQPGGSLRLSCVASGITLDYYAIGWFRQAPGKEREGVSCLSSSDGSTYYADSVKGRFTMSRDNVKNTVYLQMNSLKPEDTAVYYCATNPLTVVDGTFHLTCLDEYDYGGQGTQVTVSS",
    "OUTCOME_MEASURE": "binding result",
    "VALUE_REPORTED": "binds"
  },
  {
    "BINDER": "WNb 14 (VHH) VHH: QVQLQESGGGLVQPGGSLRLSCAASGFTFSSYAMGWARQVPGKGLEWVSGIYSDGSTYYADSVKGRFIISRDNAKNTVYLQMNSLKPEDTAVYYCAKDRMEGSSWPERDFGSWGQGTQVTVSS",
    "OUTCOME_MEASURE": "binding result",
    "VALUE_REPORTED": "binds"
  }
]

Provenance of the data: paper PMC8126837
